Listing of recorded DC50 by entry.
Target: mutant BRAF V600E (Homo sapiens, UniProt P15056, V600E)
Sequence (P15056 whole entry V600E): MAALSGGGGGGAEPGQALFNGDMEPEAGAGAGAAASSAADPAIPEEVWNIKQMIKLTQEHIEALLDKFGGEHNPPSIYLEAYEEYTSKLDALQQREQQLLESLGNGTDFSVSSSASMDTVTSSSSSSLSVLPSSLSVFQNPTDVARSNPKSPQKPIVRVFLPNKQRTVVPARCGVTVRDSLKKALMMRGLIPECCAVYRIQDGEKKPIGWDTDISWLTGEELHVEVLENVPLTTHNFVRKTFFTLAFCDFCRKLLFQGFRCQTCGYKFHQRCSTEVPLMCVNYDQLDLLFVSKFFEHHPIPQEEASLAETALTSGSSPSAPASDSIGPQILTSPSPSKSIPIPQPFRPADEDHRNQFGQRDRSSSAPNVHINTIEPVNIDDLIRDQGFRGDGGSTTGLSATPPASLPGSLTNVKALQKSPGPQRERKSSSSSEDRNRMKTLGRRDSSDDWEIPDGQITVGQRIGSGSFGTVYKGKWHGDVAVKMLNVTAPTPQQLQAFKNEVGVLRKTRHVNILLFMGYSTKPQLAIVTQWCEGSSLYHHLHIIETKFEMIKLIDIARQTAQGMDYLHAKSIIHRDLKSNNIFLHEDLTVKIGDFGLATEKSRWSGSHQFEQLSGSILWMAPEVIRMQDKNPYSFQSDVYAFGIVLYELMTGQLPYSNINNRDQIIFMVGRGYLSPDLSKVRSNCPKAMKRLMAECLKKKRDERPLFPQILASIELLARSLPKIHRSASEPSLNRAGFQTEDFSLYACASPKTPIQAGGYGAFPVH
Assay: BRAF V600E HiBiT Degradation Assay in A375.10 cells
Conditions: read-out: HiBIT-Degradation A375.10 BRAF 24 hours DC50 nM; 24 hours, A375.10 cells

# Molecule, DC50
data = [
    ("CCN(C)S(=O)(=O)Nc1ccc(F)c(Oc2ccc3ncn([C@H]4COC5(CCN(C(=O)CN6CCC(c7ccc(C8CCC(=O)NC8=O)cc7OS(=O)(=O)F)CC6)CC5)C4)c(=O)c3c2)c1C#N (stereo partly shown) [drawing 1216]", "< 1000 nM"),
    ("CCN(C)S(=O)(=O)Nc1ccc(F)c(Oc2ccc3ncn([C@H]4COC5(CCN(C(=O)CN6CCC(c7ccc(OC8CCC(=O)NC8=O)cc7OS(=O)(=O)F)CC6)CC5)C4)c(=O)c3c2)c1C#N (stereo partly shown) [drawing 1214]", "< 1000 nM"),
    ("CCN(C)S(=O)(=O)Nc1ccc(F)c(Oc2ccc3ncn([C@H]4COC5(CCN(C(=O)CN6CCC(c7ccc(NC8CCC(=O)NC8=O)cc7OS(C)(=O)=O)CC6)CC5)C4)c(=O)c3c2)c1C#N (stereo partly shown) [drawing 1217]", "< 1000 nM"),
    ("CCN(C)S(=O)(=O)Nc1ccc(F)c(Oc2ccc3ncn([C@H]4COC5(CCN(C(=O)CN6CCC(c7ccc(NC8CCC(=O)NC8=O)cc7S(=O)(=O)F)CC6)CC5)C4)c(=O)c3c2)c1C#N (stereo partly shown) [drawing 1215]", "< 1000 nM"),
    ("CCN(C)S(=O)(=O)Nc1ccc(F)c(Oc2ccc3ncn([C@@H]4COC5(CCN(C(=O)CN6CCC(c7ccc(N8CCC(=O)NC8=O)cc7OS(C)(=O)=O)CC6)CC5)C4)c(=O)c3c2)c1C#N [drawing 1219]", "< 1000 nM"),
    ("CCN(C)S(=O)(=O)Nc1ccc(F)c(Oc2ccc3ncn([C@H]4COC5(CCN(C(=O)CN6CCN(c7ccc(N8CCC(=O)NC8=O)cc7OS(=O)(=O)F)CC6)CC5)C4)c(=O)c3c2)c1C#N [drawing 1213]", "1000 to 10000 nM"),
    ("CCN(C)S(=O)(=O)Nc1ccc(F)c(Oc2ccc3ncn([C@H]4COC5(CCN(C(=O)CN6CCC(c7ccc(OC8CCC(=O)NC8=O)cc7S(=O)(=O)F)CC6)CC5)C4)c(=O)c3c2)c1C#N (stereo partly shown) [drawing 1225]", "> 10000 nM"),
]

====

Target: mutant BRAF V600E (Homo sapiens, UniProt P15056, V600E)
Assay: BRAF V600E HiBiT Degradation Assay in A375.10 cells
Settings: 2 hours, A375.10 cells; inflection point of the dose-response curve
Readout label: HiBIT-Degradation A375.10 BRAF 2 hours IP nM

# Molecule, Result
data = [
    ("CCN(C)S(=O)(=O)Nc1ccc(F)c(Oc2ccc3ncn([C@@H]4COC5(CCN(C(=O)CN6CCC(c7ccc(NC8CCC(=O)NC8=O)cc7S(=O)(=O)F)CC6)CC5)C4)c(=O)c3c2)c1C#N (some centres unmarked) [drawing 1209]", "* (>=10 μM is *)"),
    ("CCN(C)S(=O)(=O)Nc1ccc(F)c(Oc2ccc3ncn([C@H]4COC5(CCN(C(=O)CN6CCC(c7ccc(N8CCC(=O)NC8=O)cc7OS(=O)(=O)F)CC6)CC5)C4)c(=O)c3c2)c1C#N [drawing 1193]", "* (>=10 μM is *)"),
    ("CCN(C)S(=O)(=O)Nc1ccc(F)c(Oc2ccc3ncn([C@H]4COC5(CCN(C(=O)CN6CCC(c7ccc(OC8CCC(=O)NC8=O)cc7OS(C)(=O)=O)CC6)CC5)C4)c(=O)c3c2)c1C#N (some centres unmarked) [drawing 1204]", "*** (<= 1 μM is)"),
    ("CCN(C)S(=O)(=O)Nc1ccc(F)c(Oc2ccc3ncn([C@H]4COC5(CCN(C(=O)CN6CCC(c7ccc(OC8CCC(=O)NC8=O)cc7OS(=O)(=O)F)CC6)CC5)C4)c(=O)c3c2)c1C#N (some centres unmarked) [drawing 1196]", "*** (<= 1 μM is)"),
]

====

Target: mutant BRAF V600E (Homo sapiens, UniProt P15056, V600E)
Assay: BRAF V600E HiBiT Degradation Assay in A375.10 cells
Conditions: read-out: HIBIT-Degradation A375.10 BRAF 2 hours DC50 nM; 2 hours, A375.10 cells
Listing of recorded DC50 by entry.
Readout label: DC50

# Molecule, Tested target, Result
rows = [
    ("CCN(C)S(=O)(=O)Nc1ccc(F)c(Oc2ccc3ncn([C@H]4COC5(CCN(C(=O)CN6CCC(c7ccc(NC8CCC(=O)NC8=O)cc7OS(C)(=O)=O)CC6)CC5)C4)c(=O)c3c2)c1C#N (stereo partly shown) [drawing 1202]", "mutant BRAF V600E (Homo sapiens, UniProt P15056, V600E)", "1000 to 10000 nM"),
    ("CCN(C)S(=O)(=O)Nc1ccc(F)c(Oc2ccc3ncn([C@@H]4COC5(CCN(C(=O)CN6CCC(c7ccc(NC8CCC(=O)NC8=O)cc7OS(C)(=O)=O)CC6)CC5)C4)c(=O)c3c2)c1C#N (stereo partly shown) [drawing 1208]", "mutant BRAF V600E (Homo sapiens, UniProt P15056, V600E)", "> 10000 nM"),
    ("CCN(C)S(=O)(=O)Nc1ccc(F)c(Oc2ccc3ncn([C@H]4COC5(CCN(C(=O)CN6CCC(c7ccc(N8CCC(=O)NC8=O)cc7OS(=O)(=O)F)CC6)CC5)C4)c(=O)c3c2)c1C#N [drawing 1193]", "mutant BRAF V600E (Homo sapiens, UniProt P15056, V600E)", "> 10000 nM"),
    ("CCN(C)S(=O)(=O)Nc1ccc(F)c(Oc2ccc3ncn([C@@H]4COC5(CCN(C(=O)CN6CCC(c7ccc(OC8CCC(=O)NC8=O)cc7OS(C)(=O)=O)CC6)CC5)C4)c(=O)c3c2)c1C#N (stereo partly shown) [drawing 1206]", "mutant BRAF V600E (Homo sapiens, UniProt P15056, V600E)", "> 10000 nM"),
    ("CCN(C)S(=O)(=O)Nc1ccc(F)c(Oc2ccc3ncn([C@@H]4COC5(CCN(C(=O)CN6CCC(c7ccc(OC8CCC(=O)NC8=O)cc7OS(=O)(=O)F)CC6)CC5)C4)c(=O)c3c2)c1C#N (stereo partly shown) [drawing 1201]", "mutant BRAF V600E (Homo sapiens, UniProt P15056, V600E)", "1000 to 10000 nM"),
    ("CCN(C)S(=O)(=O)Nc1ccc(F)c(Oc2ccc3ncn([C@H]4COC5(CCN(C(=O)CN6CCN(c7ccc(N8CCC(=O)NC8=O)cc7OS(=O)(=O)F)CC6)CC5)C4)c(=O)c3c2)c1C#N [drawing 1194]", "mutant BRAF V600E (Homo sapiens, UniProt P15056, V600E)", "> 10000 nM"),
    ("CCN(C)S(=O)(=O)Nc1ccc(F)c(Oc2ccc3ncn([C@H]4COC5(CCN(C(=O)CN6CCN(c7ccc(C8CCC(=O)NC8=O)cc7OS(=O)(=O)F)CC6)CC5)C4)c(=O)c3c2)c1C#N (stereo partly shown) [drawing 1191]", "mutant BRAF V600E (Homo sapiens, UniProt P15056, V600E)", "1000 to 10000 nM"),
]

====

Target: mutant BRAF V600E (Homo sapiens, UniProt P15056, V600E)
Experiment: BRAF V600E HiBiT Degradation Assay in A375.10 cells
Conditions: read-out: HiBIT-Degradation A375.10 BRAF 24 hours DC50 nM; 24 hours, A375.10 cells
Listing of recorded DC50 by entry.

# Molecule, Tested target, DC50
measured = [
    ("CCN(C)S(=O)(=O)Nc1ccc(F)c(Oc2ccc3ncn([C@@H]4COC5(CCN(C(=O)CN6CCC(c7ccc(OC8CCC(=O)NC8=O)cc7OS(C)(=O)=O)CC6)CC5)C4)c(=O)c3c2)c1C#N (stereo partly drawn) [drawing 1230]", "mutant BRAF V600E (Homo sapiens, UniProt P15056, V600E)", "> 10000 nM"),
    ("CCN(C)S(=O)(=O)Nc1ccc(F)c(Oc2ccc3ncn([C@@H]4COC5(CCN(C(=O)CN6CCC(c7ccc(NC8CCC(=O)NC8=O)cc7OS(C)(=O)=O)CC6)CC5)C4)c(=O)c3c2)c1C#N (stereo partly drawn) [drawing 1226]", "mutant BRAF V600E (Homo sapiens, UniProt P15056, V600E)", "1000 to 10000 nM"),
    ("CCN(C)S(=O)(=O)Nc1ccc(F)c(Oc2ccc3ncn([C@H]4COC5(CCN(C(=O)CN6CCC(c7ccc(N8CCC(=O)NC8=O)cc7OS(C)(=O)=O)CC6)CC5)C4)c(=O)c3c2)c1C#N [drawing 1220]", "mutant BRAF V600E (Homo sapiens, UniProt P15056, V600E)", "< 1000 nM"),
    ("CCN(C)S(=O)(=O)Nc1ccc(F)c(Oc2ccc3ncn([C@@H]4COC5(CCN(C(=O)CN6CCC(c7ccc(NC8CCC(=O)NC8=O)cc7S(=O)(=O)F)CC6)CC5)C4)c(=O)c3c2)c1C#N (stereo partly drawn) [drawing 1222]", "mutant BRAF V600E (Homo sapiens, UniProt P15056, V600E)", "1000 to 10000 nM"),
    ("CCN(C)S(=O)(=O)Nc1ccc(F)c(Oc2ccc3ncn([C@@H]4COC5(CCN(C(=O)CN6CCC(c7ccc(C8CCC(=O)NC8=O)cc7OS(C)(=O)=O)CC6)CC5)C4)c(=O)c3c2)c1C#N (stereo partly drawn) [drawing 1223]", "mutant BRAF V600E (Homo sapiens, UniProt P15056, V600E)", "< 1000 nM"),
    ("CCN(C)S(=O)(=O)Nc1ccc(F)c(Oc2ccc3ncn([C@H]4COC5(CCN(C(=O)CN6CCC(c7ccc(OC8CCC(=O)NC8=O)cc7OS(C)(=O)=O)CC6)CC5)C4)c(=O)c3c2)c1C#N (stereo partly drawn) [drawing 1224]", "mutant BRAF V600E (Homo sapiens, UniProt P15056, V600E)", "1000 to 10000 nM"),
    ("CCN(C)S(=O)(=O)Nc1ccc(F)c(Oc2ccc3ncn([C@@H]4COC5(CCN(C(=O)CN6CCC(c7ccc(N8CCC(=O)NC8=O)cc7OS(=O)(=O)F)CC6)CC5)C4)c(=O)c3c2)c1C#N [drawing 1227]", "mutant BRAF V600E (Homo sapiens, UniProt P15056, V600E)", "1000 to 10000 nM"),
    ("CCN(C)S(=O)(=O)Nc1ccc(F)c(Oc2ccc3ncn([C@@H]4COC5(CCN(C(=O)CN6CCC(c7ccc(C8CCC(=O)NC8=O)cc7OS(=O)(=O)F)CC6)CC5)C4)c(=O)c3c2)c1C#N (stereo partly drawn) [drawing 1210]", "mutant BRAF V600E (Homo sapiens, UniProt P15056, V600E)", "< 1000 nM"),
    ("CCN(C)S(=O)(=O)Nc1ccc(F)c(Oc2ccc3ncn([C@@H]4COC5(CCN(C(=O)CN6CCN(c7ccc(N8CCC(=O)NC8=O)cc7OS(=O)(=O)F)CC6)CC5)C4)c(=O)c3c2)c1C#N [drawing 1229]", "mutant BRAF V600E (Homo sapiens, UniProt P15056, V600E)", "1000 to 10000 nM"),
]
